Data provenance: PubChem BioAssay (NCI)

- Test system: HT29 colon
- assayComment: NCI tumour cell line growth inhibition, 48 h
The reader will find reported TGI values listed item by item below.

// solved cases for TGI follow
>>> val("Cc1ccc(/C=C2\\CN(C(=O)OC(C)(C)C)C/C(=C\\c3ccc(C)cc3)C2=O)cc1")
"> 40.7 µM"
>>> val("COc1cccc(/C=C/C(=O)c2cccc(Nc3nc(Nc4ccccc4)nc(Nc4ccccc4)n3)c2)c1")
"> 81.7 µM"

Fill blank: measured TGI of the compound CC(C)NC[C@@H](C(=O)N1CCN(c2ncnc3c2[C@H](C)C[C@H]3O)CC1)c1ccc(Cl)cc1 is ____.
> 100 µM
